Value source: ChEMBL document CHEMBL5291721

Consider the following compounds; for each one, report its AC50.
Molecular target: 5-hydroxytryptamine receptor 3A (Homo sapiens); also: assay procedure not described here
Sequence (P46098 whole entry): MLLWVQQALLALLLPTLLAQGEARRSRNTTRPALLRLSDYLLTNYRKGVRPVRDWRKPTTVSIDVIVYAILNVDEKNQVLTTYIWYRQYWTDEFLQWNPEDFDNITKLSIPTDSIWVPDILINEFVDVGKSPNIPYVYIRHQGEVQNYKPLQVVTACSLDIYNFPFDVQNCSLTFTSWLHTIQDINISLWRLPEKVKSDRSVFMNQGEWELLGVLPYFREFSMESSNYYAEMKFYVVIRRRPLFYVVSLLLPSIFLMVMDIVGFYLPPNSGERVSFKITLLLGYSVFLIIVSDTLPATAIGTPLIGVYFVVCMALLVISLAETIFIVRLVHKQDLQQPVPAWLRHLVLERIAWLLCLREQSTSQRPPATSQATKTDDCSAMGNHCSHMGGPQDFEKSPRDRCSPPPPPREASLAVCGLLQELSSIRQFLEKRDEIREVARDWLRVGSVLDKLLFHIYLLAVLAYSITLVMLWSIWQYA
Assay type: functional

Reported AC50 of CN1CCC(=C2c3ccccc3CCc3cccnc32)CC1 [AZATADINE] : > 30 µM

Reported AC50 of COc1ccc(CC2c3cc(OC)c(OC)cc3CC[N+]2(C)CCC(=O)OCCCCCOC(=O)CC[N+]2(C)CCc3cc(OC)c(OC)cc3C2Cc2ccc(OC)c(OC)c2)cc1OC (stereo unspecified) : > 30 µM

Reported AC50 of COc1cc(N)c(Cl)cc1C(=O)NC1CCN(Cc2ccccc2)CC1 [CLEBOPRIDE] : 8.6 µM

Reported AC50 of Oc1ccc2c(c1)[C@@]13CCCC[C@@]1(O)[C@@H](C2)N(CC1CCC1)CC3 [BUTORPHANOL] : > 30 µM

Reported AC50 of CCN(CC)CCNC(=O)c1cc(S(C)(=O)=O)ccc1OC [TIAPRIDE] : > 30 µM

Reported AC50 of C=C1/C(=C\C=C2/CCC[C@]3(C)[C@@H]([C@H](C)/C=C/[C@@H](O)C4CC4)CC[C@@H]23)C[C@@H](O)C[C@@H]1O [CALCIPOTRIENE] : > 30 µM

Reported AC50 of CC(C)N(CCC(C(N)=O)(c1ccccc1)c1ccccn1)C(C)C (stereo unspecified) [DISOPYRAMIDE] : > 30 µM

Reported AC50 of CN1C[C@H](C(=O)N[C@]2(C)O[C@@]3(O)[C@@H]4CCCN4C(=O)[C@H](Cc4ccccc4)N3C2=O)C=C2c3cccc4[nH]cc(c34)C[C@H]21 [ERGOTAMINE] : > 30 µM

Reported AC50 of C#C[C@]1(OC(C)=O)CC[C@H]2[C@@H]3CCC4=C/C(=N/O)CC[C@@H]4[C@H]3CC[C@@]21CC [NORGESTIMATE] : > 30 µM

Reported AC50 of CCCCC1C(=O)N(c2ccccc2)N(c2ccccc2)C1=O [PHENYLBUTAZONE] : > 30 µM

Reported AC50 of O=[N+]([O-])c1ccc(O)c2ncccc12 [NITROXOLINE] : 6.6 µM

Reported AC50 of CN(CC1(C)CCCO1)S(=O)(=O)c1ccc(Cl)c(S(N)(=O)=O)c1 (stereo unspecified) [MEFRUSIDE] : > 30 µM

Reported AC50 of Clc1ccc2c(N3CCN(CCCN4CCN(c5ccnc6cc(Cl)ccc56)CC4)CC3)ccnc2c1 [PIPERAQUINE] : > 30 µM

Reported AC50 of Nc1ccc(S(=O)(=O)Nc2nccs2)cc1 [SULFATHIAZOLE] : > 30 µM

Reported AC50 of CC(C(=O)O)c1ccc(-c2ccccc2)c(F)c1 (stereo unspecified) [FLURBIPROFEN] : > 10 µM

Reported AC50 of C[C@H](CCC(=O)O)[C@H]1CC[C@H]2[C@@H]3[C@@H](O)C[C@@H]4C[C@H](O)CC[C@]4(C)[C@H]3CC[C@]12C [URSODIOL] : > 30 µM

====

Target: Progesterone receptor (Homo sapiens); also: assay procedure not described here
Sequence (P06401 whole entry): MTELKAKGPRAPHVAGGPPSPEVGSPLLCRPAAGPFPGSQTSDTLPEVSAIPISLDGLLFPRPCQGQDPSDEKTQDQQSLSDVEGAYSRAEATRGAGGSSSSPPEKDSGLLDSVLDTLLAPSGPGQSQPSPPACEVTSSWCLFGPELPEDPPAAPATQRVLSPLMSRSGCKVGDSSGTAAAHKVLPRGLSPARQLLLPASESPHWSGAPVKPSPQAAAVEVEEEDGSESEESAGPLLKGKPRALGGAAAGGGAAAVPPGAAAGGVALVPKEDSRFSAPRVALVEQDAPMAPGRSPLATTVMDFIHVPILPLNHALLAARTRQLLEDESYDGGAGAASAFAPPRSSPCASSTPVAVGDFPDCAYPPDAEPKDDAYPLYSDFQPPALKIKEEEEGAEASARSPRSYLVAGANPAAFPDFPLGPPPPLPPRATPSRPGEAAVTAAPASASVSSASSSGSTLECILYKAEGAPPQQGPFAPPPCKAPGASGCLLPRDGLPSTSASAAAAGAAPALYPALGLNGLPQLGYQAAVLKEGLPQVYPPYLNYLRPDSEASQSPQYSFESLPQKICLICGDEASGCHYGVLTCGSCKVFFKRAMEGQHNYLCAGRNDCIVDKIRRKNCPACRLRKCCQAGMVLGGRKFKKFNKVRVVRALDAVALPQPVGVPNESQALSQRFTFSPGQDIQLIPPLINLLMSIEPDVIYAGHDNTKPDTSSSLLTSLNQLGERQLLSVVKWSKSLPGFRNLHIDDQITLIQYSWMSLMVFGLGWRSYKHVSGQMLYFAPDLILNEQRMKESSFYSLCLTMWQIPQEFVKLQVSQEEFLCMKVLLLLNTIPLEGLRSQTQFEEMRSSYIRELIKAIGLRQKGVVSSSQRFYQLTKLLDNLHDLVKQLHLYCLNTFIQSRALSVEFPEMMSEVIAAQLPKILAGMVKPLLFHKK
Type: functional
Consider the following compounds; for each one, report its AC50.

Reported AC50 of C[C@@H](NCCCc1cccc(C(F)(F)F)c1)c1cccc2ccccc12 : > 30 µM

Reported AC50 of COc1cc(N)c(Cl)cc1C(=O)NC1CCN(Cc2ccccc2)CC1 [CLEBOPRIDE] : > 30 µM

Reported AC50 of COc1cc2c(cc1OC)C(CCc1ccc(Cl)cc1)N(C)CC2 (configuration not stated) : > 30 µM

Reported AC50 of CO[C@H]1/C=C/O[C@@]2(C)Oc3c(C)c(O)c4c(O)c(c(/C=N/N5CCN(C)CC5)c(O)c4c3C2=O)NC(=O)/C(C)=C\C=C\[C@H](C)[C@H](O)[C@@H](C)[C@@H](O)[C@@H](C)[C@H](OC(C)=O)[C@@H]1C : > 30 µM

Reported AC50 of CC(C)(C)NCC(O)c1cc(O)cc(O)c1 (configuration not stated) : > 30 µM

Reported AC50 of O=C1C(CC[S+]([O-])c2ccccc2)C(=O)N(c2ccccc2)N1c1ccccc1 (configuration not stated) : > 10 µM

Reported AC50 of CC(C)(C)C(=O)OCC(=O)[C@H]1CC[C@H]2[C@@H]3CCC4=CC(=O)CC[C@]4(C)[C@H]3CC[C@]12C [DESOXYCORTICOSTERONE PIVALATE] : 0.213 µM
